Origin of measurements: PubChem BioAssay AID2060510

System: 439559-082-T-J2-PDC spheroids viability
method-notes: Anticancer human tumor 439559-082-T-J2-PDC patient-derived colon adenocarcinoma cell line growth inhibition [GQUAD]
applied-conditions: second compound 10 µM; first compound 0.000999 µM; stronger effect = lower value
I'd appreciate it if you could supply viability, T/C values for the items below.
All answers are understood in %, so give the number only.

## Task // lookup viability, T/C for Cc1[nH]c2ccccc2c1CCNCc1ccc(/C=C/C(=O)NO)cc1 + Cc1cnc(CNC(=O)c2c(=O)c3ccc(N4CCCN(C)CC4)nc3n3c2sc2ccccc23)cn1
## Result 70

## Task // lookup viability, T/C for Cn1ncnc1[C@H]1c2n[nH]c(=O)c3cc(F)cc(c23)N[C@@H]1c1ccc(F)cc1 + CN(C)c1ccc(Nc2c3ccc(NC(=O)CCN4CCCC4)cc3nc3cc(NC(=O)CCN4CCCC4)ccc23)cc1
## Result 104

## Task // lookup viability, T/C for CC[C@@]1(O)C(=O)OCc2c1cc1n(c2=O)Cc2cc3c(CN(C)C)c(O)ccc3nc2-1 + Cc1[nH]c2ccc(F)cc2c1-c1nc2c3cccnc3c3ncccc3c2[nH]1
## Result 86.4

## Task // lookup viability, T/C for CC[C@@]1(O)C(=O)OCc2c1cc1n(c2=O)Cc2cc3c(CN(C)C)c(O)ccc3nc2-1 + CN(C)c1ccc(Nc2c3ccc(NC(=O)CCN4CCCC4)cc3nc3cc(NC(=O)CCN4CCCC4)ccc23)cc1
## Result 102

## Task // lookup viability, T/C for CC[C@@]1(O)C(=O)OCc2c1cc1n(c2=O)Cc2cc3c(CN(C)C)c(O)ccc3nc2-1 + Cc1cnc(CNC(=O)c2c(=O)c3ccc(N4CCCN(C)CC4)nc3n3c2sc2ccccc23)cn1
## Result 64.3

====

Tested on: 439559-082-T-J2-PDC spheroids viability
method-notes: Anticancer human tumor 439559-082-T-J2-PDC cell line growth inhibition [GQUAD];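 also: spheroids exposed to the agents for 7 days before readout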
applied-conditions: curve of first compound; second compound 0.316 µM
I'd appreciate it if you could supply IC50 values for the items below.
All answers are understood in nM, so give the number only.

## Task // lookup IC50 for Nc1ccn(C2OC(CO)C(O)C2(F)F)c(=O)n1 (stereo not given) + Cc1cnc(CNC(=O)c2c(=O)c3ccc(N4CCCN(C)CC4)nc3n3c2sc2ccccc23)cn1
## Result 231

## Task // lookup IC50 for CC(=O)O[C@H]1C(=O)[C@@]2(C)[C@H]([C@H](OC(=O)c3ccccc3)[C@]3(O)C[C@H](OC(=O)[C@H](O)[C@@H](NC(=O)c4ccccc4)c4ccccc4)C(C)=C1C3(C)C)[C@]1(OC(C)=O)CO[C@@H]1C[C@@H]2O + Cc1[nH]c2ccc(F)cc2c1-c1nc2c3cccnc3c3ncccc3c2[nH]1
## Result 436

## Task // lookup IC50 for C=CCn1c(=O)c2cnc(Nc3ccc(N4CCN(C)CC4)cc3)nc2n1-c1cccc(C(C)(C)O)n1 + CN(C)c1ccc(Nc2c3ccc(NC(=O)CCN4CCCC4)cc3nc3cc(NC(=O)CCN4CCCC4)ccc23)cc1
## Result 4010

## Task // lookup IC50 for O=C(NO)c1cnc(N2CCN(S(=O)(=O)c3ccc4ccccc4c3)CC2)nc1 + Cc1cnc(CNC(=O)c2c(=O)c3ccc(N4CCCN(C)CC4)nc3n3c2sc2ccccc23)cn1
## Result 450

## Task // lookup IC50 for C=CCn1c(=O)c2cnc(Nc3ccc(N4CCN(C)CC4)cc3)nc2n1-c1cccc(C(C)(C)O)n1 + Cc1[nH]c2ccc(F)cc2c1-c1nc2c3cccnc3c3ncccc3c2[nH]1
## Result 8080
